# Lookup of reported pIC50 keyed by entry
- SYSTEM_NAME: T1, human beta CGRP (SEQ ID NO: 81) (human, not fully specified)
- T1 construct: also called human βCGRP; hβCGRP
- T1 peptide: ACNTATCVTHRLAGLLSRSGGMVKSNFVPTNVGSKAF
- PROTOCOL_TEXT: competition ELISA in solution; free mutein detected on plate-bound biotinylated CGRP
pIC50: −log10 of the molar value.

{"BINDER": "lipocalin mutein SEQ ID NO: 4 (designed binder, biotinylated by NHS chemistry for capture in SPR) QDSTSDLIPAPPLSKVPLQQNFQDNQFHGKWYVVGWAGNTLLREDKDPTKMQATIYELKEDKSYNVTWVYFSEKKCNYHIETFVPGSQPGEFTLGTIKSYPGETSILVRVVSTNYNQHAMVFFKGVSQNREIFEITLYGRTKELTSELKENFIRFSKSLGLPENHIVFPVPIDQCIDGSAWSHPQFEK", "pIC50": 8.74}
{"BINDER": "lipocalin mutein SEQ ID NO: 3 (designed binder) QDSTSDLIPAPPLSKVPLQQNFQDNQFHGKWYVVGFAGNMWLREDKDPFKMGATIYELKEDKSYNVTWVWFEAKKCDYGINTFVPGSQPGEFTLGGIKSPPGMTSHLVRVVSTNYNQHAMVFFKEVFQNREWFWITLYGRTKELTSELKENFIRFSKSLGLPENHIVFPVPIDQCIDGSAWSHPQFEK", "pIC50": 7.85}
{"BINDER": "lipocalin mutein SEQ ID NO: 2 (designed binder) QDSTSDLIPAPPLSKVPLQQNFQDNQFHGKWYVVGEAGNWGLREDKDPKKMAATIYELKEDKSYNVTDVQFIEKKCDYWIGTFVPGSQPGEFTLGAIKSEPGQTSNLVRVVSTNYNQHAMVFFKEVWQNRELFWITLYGRTKELTSELKENFIRFSKSLGLPENHIVFPVPIDQCIDGSAWSHPQFEK", "pIC50": 7.34}
{"BINDER": "lipocalin mutein SEQ ID NO: 5 (designed binder) QDSTSDLIPAPPLSKVPLQQNFQDNQFHGKWYVVGRAGNAELREDKDPEKMEATIYELKEDKSYNVTDVGFWQKKCIYVIHTFVPGSQPGEFTLGNIKSYPGTTSALVRVVSTNYNQHAMVFFKVVRQNREWFEITLYGRTKELTSELKENFIRFSKSLGLPENHIVFPVPIDQCIDGSAWSHPQFEK", "pIC50": 7.55}

Reference for the values: patent US20190338002A1
